Just for reference, patent US9266922B2 is where these values come from.

- assay-system: HLA A*0201 on CEM.T2 cell line (Homo sapiens, UniProt P04439, D140Y/D185E/D98H/E176V/E277Q/G131W/G231S/I119V/I121R/I166T/I218V/L300P/L318F/N151K/N90K/P208A/P217A/Q86G/Q94H/R138H/R169H/T345S)
- Construct: This cell line expresses HLA A*0201 but is deficient for TAP transporter; endogenous in cells; host or cells: CEM.T2 (T2) cell line
- method-description: Cellular dissociation assay on CEM.T2 cells
- Type: cell-based
- measurement-conditions: after Brefeldin A 1 h and 3 h in serum-free RPMI at 37° C. (4 h)
Residues, ends and D or L forms follow the SMILES beside them.
The following compounds are shown together with reported CEM.T2 % Residual Binding values.
measurement-name: CEM.T2 % Residual Binding (%)

[[record]]
compound = "CSCC[C@H](NC(=O)[C@H](C)N)C(=O)N[C@@H](CC(C)C)C(=O)N[C@@H](CCCCN)C(=O)N[C@@H](CS)C(=O)N[C@@H](CC(C)C)C(=O)N[C@@H](CO)C(=O)N[C@@H](CCC(=O)O)C(=O)NCC(=O)O [Peptide 266] (H-AMLKCLSEG-OH; N-terminus and C-terminus assumed)"
unit_of_measure = "%"
recorded_number = 39

[[record]]
compound = "CC(C)C[C@H](NC(=O)[C@H](CCCNC(=N)N)NC(=O)[C@H](C)NC(=O)[C@H](CCC(N)=O)NC(=O)[C@@H](N)Cc1ccccc1)C(=O)N[C@@H](CCCNC(=N)N)C(=O)N[C@@H](CC(C)C)C(=O)N[C@@H](CCCNC(=N)N)C(=O)N[C@H](C(=O)O)C(C)C [Peptide 137] (H-FQARLRLRV-OH; N-terminus and C-terminus assumed)"
unit_of_measure = "%"
recorded_number = 72

[[record]]
compound = "CC[C@H](C)[C@H](NC(=O)[C@@H](N)Cc1c[nH]cn1)C(=O)N[C@@H](CC(C)C)C(=O)N[C@@H](Cc1c[nH]cn1)C(=O)N[C@H](C(=O)N[C@@H](CO)C(=O)N[C@@H](Cc1ccccc1)C(=O)N[C@@H](CC(C)C)C(=O)N[C@@H](C)C(=O)O)C(C)C [Peptide 238] (H-HILHVSFLA-OH; N-terminus and C-terminus assumed)"
unit_of_measure = "%"
recorded_number = 66

[[record]]
compound = "CC[C@H](C)[C@H](NC(=O)[C@@H](NC(=O)CN)C(C)C)C(=O)N[C@@H](C)C(=O)N[C@@H](C)C(=O)N[C@@H](CC(C)C)C(=O)N[C@@H](CC(C)C)C(=O)N[C@@H](Cc1ccccc1)C(=O)N[C@@H](CS)C(=O)O [Peptide 354] (H-GVIAALLFC-OH; N-terminus and C-terminus assumed)"
unit_of_measure = "%"
recorded_number = 0

[[record]]
compound = "CC(C)C[C@H](NC(=O)[C@H](Cc1c[nH]cn1)NC(=O)[C@H](Cc1ccccc1)NC(=O)[C@H](CCC(=O)O)NC(=O)[C@H](CO)NC(=O)[C@@H](NC(=O)[C@@H](NC(=O)[C@H](C)N)C(C)C)[C@@H](C)O)C(=O)N[C@H](C(=O)O)C(C)C [Peptide 203] (H-AVTSEFHLV-OH; N-terminus and C-terminus assumed)"
unit_of_measure = "%"
recorded_number = 0

[[record]]
compound = "CC(C)C[C@H](NC(=O)[C@@H](N)CC(C)C)C(=O)N[C@@H](C)C(=O)N[C@@H](CO)C(=O)N[C@@H](Cc1ccccc1)C(=O)N[C@H](C(=O)NCC(=O)N[C@@H](CCCNC(=N)N)C(=O)N[C@@H](CS)C(=O)O)[C@@H](C)O [Peptide 21] (H-LLASFTGRC-OH; N-terminus and C-terminus assumed)"
unit_of_measure = "%"
recorded_number = 86


----------
- assay-system: HLA A*0201 on CEM.T2 cell line (Homo sapiens, UniProt P04439, D140Y/D185E/D98H/E176V/E277Q/G131W/G231S/I119V/I121R/I166T/I218V/L300P/L318F/N151K/N90K/P208A/P217A/Q86G/Q94H/R138H/R169H/T345S)
- Construct: This cell line expresses HLA A*0201 but is deficient for TAP transporter; endogenous in cells; host or cells: CEM.T2 (T2) cell line
- method-description: Cellular binding assay, HLA stabilization on CEM.T2 cells
- Assay type: cell-based
- measurement-conditions: 100 μM peptide, 37° C. for 4 h, FACS anti HLA-A2; relative to HBV positive control peptide
Residues, ends and D or L forms follow the SMILES beside them.
Each entry below carries its recorded CEM.T2 % Binding.
measurement-name: CEM.T2 % Binding (%)

[[record]]
molecule = "CC(C)C[C@H](NC(=O)[C@@H](N)CC(C)C)C(=O)N[C@@H](C)C(=O)N[C@@H](CO)C(=O)N[C@@H](Cc1ccccc1)C(=O)N[C@H](C(=O)NCC(=O)N[C@@H](CCCNC(=N)N)C(=O)N[C@@H](CS)C(=O)O)[C@@H](C)O [Peptide 21] (H-LLASFTGRC-OH; N-terminus and C-terminus assumed)"
recorded_number = 44

[[record]]
molecule = "CC[C@H](C)[C@H](NC(=O)[C@H](Cc1c[nH]cn1)NC(=O)[C@H](Cc1c[nH]c2ccccc12)NC(=O)[C@H](CC(C)C)NC(=O)[C@H](CC(N)=O)NC(=O)[C@H](CCC(N)=O)NC(=O)[C@@H](N)CC(=O)O)C(=O)NCC(=O)N[C@@H](CCCNC(=N)N)C(=O)O [Peptide 255]"
recorded_number = 6

[[record]]
molecule = "CSCC[C@H](NC(=O)[C@@H](N)CO)C(=O)N[C@@H](CC(N)=O)C(=O)NCC(=O)N[C@@H](CCC(N)=O)C(=O)N1CCC[C@H]1C(=O)N[C@@H](CC(C)C)C(=O)N[C@H](C(=O)N[C@@H](CS)C(=O)O)[C@@H](C)O [Peptide 215] (H-SMNGQPLTC-OH; N-terminus and C-terminus assumed)"
recorded_number = 21


----------
- assay-system: HLA A*0201 on CEM.T2 cell line (Homo sapiens, UniProt P04439, D140Y/D185E/D98H/E176V/E277Q/G131W/G231S/I119V/I121R/I166T/I218V/L300P/L318F/N151K/N90K/P208A/P217A/Q86G/Q94H/R138H/R169H/T345S)
- Construct: This cell line expresses HLA A*0201 but is deficient for TAP transporter; endogenous in cells; host or cells: CEM.T2 (T2) cell line
- method-description: Cellular binding assay, HLA stabilization on CEM.T2 cells
- Type: cell-based
- measurement-conditions: 100 μM peptide, 37° C. for 4 h, FACS anti HLA-A2; relative to HBV positive control peptide
Residues, ends and D or L forms follow the SMILES beside them.
Reported values of CEM.T2 % Binding for individual entries
measurement-name: CEM.T2 % Binding (%)

[[record]]
compound = "CC(C)C[C@H](NC(=O)[C@@H](NC(=O)[C@H](CO)NC(=O)[C@H](Cc1ccc(O)cc1)NC(=O)[C@H](CO)NC(=O)[C@@H](N)CCCNC(=N)N)[C@@H](C)O)C(=O)N[C@H](C(=O)N[C@H](C(=O)N[C@H](C(=O)O)C(C)C)[C@@H](C)O)[C@@H](C)O [Peptide 443] (H-RSYSTLTTV-OH; N-terminus and C-terminus assumed)"
measurement_name = "CEM.T2 % Binding"
recorded_number = 37

[[record]]
compound = "CC(C)C[C@H](NC(=O)[C@H](CS)NC(=O)[C@H](Cc1ccccc1)NC(=O)[C@H](CC(C)C)NC(=O)[C@@H](N)CC(C)C)C(=O)N[C@@H](CC(C)C)C(=O)N[C@H](C(=O)N[C@H](C(=O)N[C@H](C(=O)O)C(C)C)C(C)C)C(C)C [Peptide 359] (H-LLFCLLVVV-OH; N-terminus and C-terminus assumed)"
measurement_name = "CEM.T2 % Binding"
recorded_number = 7


----------
- assay-system: HLA-A*0201 (Homo sapiens, UniProt P04439, D140Y/D185E/D98H/E176V/E277Q/G131W/G231S/I119V/I121R/I166T/I218V/L300P/L318F/N151K/N90K/P208A/P217A/Q86G/Q94H/R138H/R169H/T345S)
- method-description: biochemical
- Format: binding
- measurement-conditions: peptide concentration giving 50% of optimal binding; 10^−4 to 10^−9 M, 21° C. for 18 h; read-out: Affinity (ED50)
pEC50: −log10 of the molar value. Residues, ends and D or L forms follow the SMILES beside them.
measurement-name: pEC50

[[record]]
compound = "CSCC[C@H](NC(=O)[C@@H](N)CO)C(=O)N[C@@H](CC(N)=O)C(=O)NCC(=O)N[C@@H](CCC(N)=O)C(=O)N1CCC[C@H]1C(=O)N[C@@H](CC(C)C)C(=O)N[C@H](C(=O)N[C@@H](CS)C(=O)O)[C@@H](C)O [Peptide 215] (H-SMNGQPLTC-OH; N-terminus and C-terminus assumed)"
recorded_number = 6.15

[[record]]
compound = "CSCC[C@H](NC(=O)[C@H](C)N)C(=O)N[C@@H](CC(C)C)C(=O)N[C@@H](CCCCN)C(=O)N[C@@H](CS)C(=O)N[C@@H](CC(C)C)C(=O)N[C@@H](CO)C(=O)N[C@@H](CCC(=O)O)C(=O)NCC(=O)O [Peptide 266] (H-AMLKCLSEG-OH; N-terminus and C-terminus assumed)"
recorded_number = 6.15

